# measured_on: UniProt:P10721
# assay: PathScan phospho c-kit (Tyr719) sandwich ELISA in SCF-stimulated M-07e cells (pKIT assay)
# Assay type: cell-based
# recorded_conditions: ELISA assay (values not marked *)
Sorting guide: entries reporting IC50 beneath 4 nM go in the Condition met pile, the rest go in the Condition not met pile.

Here are 5 molecules together with their reported answers.
Cc1ccc(-c2nnn(CCOC(C)C)n2)cc1NC(=O)c1cnn2ccccc12    Condition met
Cc1nnn(-c2ccc(C)c(NC(=O)c3cnn4ccc(-c5cnn(CCO)c5)cc34)c2)n1    Condition not met
CCOC(=O)N1CC(n2nnc(-c3ccc(C)c(NC(=O)c4cnn5ccc(NCCOC)cc45)c3)n2)C1    Condition not met
Cc1nn(CCO)cc1-c1ccn2ncc(C(=O)Nc3cc(-c4nnn(C5CC5)n4)ccc3Cl)c2c1    Condition met
Cc1ccc(-c2nnn(CCOC3CCC3)n2)cc1NC(=O)c1cnn2ccccc12    Condition met

API: query returns whether the molecule falls strictly under 4 nM in IC50. Query: CCn1nnc(-c2cc(NC(=O)c3cnn4ccc(-c5cn(C[C@H](O)COCCOC)nc5C)cc34)c(Cl)cc2F)n1
Condition met

API: query returns whether the molecule falls strictly under 4 nM in IC50. Query: Cc1cc(F)c(NC(=O)c2cnn3ccc(-c4cnn(CC(C)(C)O)c4)cc23)cc1-c1nnn(C2CC2)n1
Condition not met

API: query returns whether the molecule falls strictly under 4 nM in IC50. Query: O=C(Nc1cc(-c2nnn(CC3CC3)n2)ccc1Cl)c1cnn2ccccc12
Condition not met

---

# measured_on: wild type c-kit (Homo sapiens (Human))
# Sequence (P10721 26-976): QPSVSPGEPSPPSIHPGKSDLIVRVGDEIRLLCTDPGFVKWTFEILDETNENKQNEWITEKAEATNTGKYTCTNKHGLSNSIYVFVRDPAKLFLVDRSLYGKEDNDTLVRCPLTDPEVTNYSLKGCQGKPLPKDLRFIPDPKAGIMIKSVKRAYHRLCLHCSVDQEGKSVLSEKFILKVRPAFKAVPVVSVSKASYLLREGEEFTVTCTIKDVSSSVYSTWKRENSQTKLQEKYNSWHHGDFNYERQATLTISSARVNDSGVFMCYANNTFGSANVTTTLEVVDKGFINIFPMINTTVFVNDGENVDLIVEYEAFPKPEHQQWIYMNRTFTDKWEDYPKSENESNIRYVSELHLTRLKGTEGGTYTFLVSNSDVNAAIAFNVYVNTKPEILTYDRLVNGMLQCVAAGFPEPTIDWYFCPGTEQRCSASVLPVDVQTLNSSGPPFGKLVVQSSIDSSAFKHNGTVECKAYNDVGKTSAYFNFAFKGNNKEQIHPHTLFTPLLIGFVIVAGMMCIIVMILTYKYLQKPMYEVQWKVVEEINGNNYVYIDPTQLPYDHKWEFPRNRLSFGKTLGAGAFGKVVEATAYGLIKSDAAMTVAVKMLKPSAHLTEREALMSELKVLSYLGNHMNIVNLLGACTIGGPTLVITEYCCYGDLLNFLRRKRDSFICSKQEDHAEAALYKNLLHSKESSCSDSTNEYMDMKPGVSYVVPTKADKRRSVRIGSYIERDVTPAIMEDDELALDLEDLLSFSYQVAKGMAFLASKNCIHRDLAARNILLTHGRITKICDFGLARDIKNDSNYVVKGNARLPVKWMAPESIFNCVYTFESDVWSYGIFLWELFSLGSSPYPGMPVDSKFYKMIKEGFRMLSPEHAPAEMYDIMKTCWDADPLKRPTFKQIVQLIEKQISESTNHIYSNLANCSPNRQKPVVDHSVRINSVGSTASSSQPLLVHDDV
# assay: PathScan phospho c-kit (Tyr719) sandwich ELISA in SCF-stimulated M-07e cells (pKIT assay)
# Assay type: cell-based
# recorded_conditions: ELISA assay (values not marked *)
# pIC50 per entry
Answer as the number alone; pIC50 is minus log10 of concentration in mol/L.

Below: 3 molecules and their reported pIC50.
Cc1cc(F)c(-c2nnn(C3CC3)n2)cc1NC(=O)c1cnn2ccc(-c3cn(CC(C)(C)O)nc3C3CC3)cc12 [Example 241]    9.70
COC(=O)N1CC(n2nnc(-c3ccc(Cl)c(NC(=O)c4cnn5cc(N6CCOCC6)ccc45)c3)n2)C1 [Example 163]    8.03
COC(=O)N1CC(n2nnc(-c3ccc(C)c(NC(=O)c4cnn5ccc(NCC(F)F)cc45)c3)n2)C1 [Example 131]    7.31

Please find the next molecule below.
Request - read-out pIC50 | tested on wild type c-kit (Homo sapiens (Human)) | molecule O=C(Nc1cc(-c2nnn(C3CC(F)(F)C3)n2)ccc1Cl)c1cnn2ccccc12 [Example 17]
8.19

---

# measured_on: human P-glycoprotein (P-gp, MDR1) (Homo sapiens (Human), UniProt P08183)
# Sequence (P08183 whole entry): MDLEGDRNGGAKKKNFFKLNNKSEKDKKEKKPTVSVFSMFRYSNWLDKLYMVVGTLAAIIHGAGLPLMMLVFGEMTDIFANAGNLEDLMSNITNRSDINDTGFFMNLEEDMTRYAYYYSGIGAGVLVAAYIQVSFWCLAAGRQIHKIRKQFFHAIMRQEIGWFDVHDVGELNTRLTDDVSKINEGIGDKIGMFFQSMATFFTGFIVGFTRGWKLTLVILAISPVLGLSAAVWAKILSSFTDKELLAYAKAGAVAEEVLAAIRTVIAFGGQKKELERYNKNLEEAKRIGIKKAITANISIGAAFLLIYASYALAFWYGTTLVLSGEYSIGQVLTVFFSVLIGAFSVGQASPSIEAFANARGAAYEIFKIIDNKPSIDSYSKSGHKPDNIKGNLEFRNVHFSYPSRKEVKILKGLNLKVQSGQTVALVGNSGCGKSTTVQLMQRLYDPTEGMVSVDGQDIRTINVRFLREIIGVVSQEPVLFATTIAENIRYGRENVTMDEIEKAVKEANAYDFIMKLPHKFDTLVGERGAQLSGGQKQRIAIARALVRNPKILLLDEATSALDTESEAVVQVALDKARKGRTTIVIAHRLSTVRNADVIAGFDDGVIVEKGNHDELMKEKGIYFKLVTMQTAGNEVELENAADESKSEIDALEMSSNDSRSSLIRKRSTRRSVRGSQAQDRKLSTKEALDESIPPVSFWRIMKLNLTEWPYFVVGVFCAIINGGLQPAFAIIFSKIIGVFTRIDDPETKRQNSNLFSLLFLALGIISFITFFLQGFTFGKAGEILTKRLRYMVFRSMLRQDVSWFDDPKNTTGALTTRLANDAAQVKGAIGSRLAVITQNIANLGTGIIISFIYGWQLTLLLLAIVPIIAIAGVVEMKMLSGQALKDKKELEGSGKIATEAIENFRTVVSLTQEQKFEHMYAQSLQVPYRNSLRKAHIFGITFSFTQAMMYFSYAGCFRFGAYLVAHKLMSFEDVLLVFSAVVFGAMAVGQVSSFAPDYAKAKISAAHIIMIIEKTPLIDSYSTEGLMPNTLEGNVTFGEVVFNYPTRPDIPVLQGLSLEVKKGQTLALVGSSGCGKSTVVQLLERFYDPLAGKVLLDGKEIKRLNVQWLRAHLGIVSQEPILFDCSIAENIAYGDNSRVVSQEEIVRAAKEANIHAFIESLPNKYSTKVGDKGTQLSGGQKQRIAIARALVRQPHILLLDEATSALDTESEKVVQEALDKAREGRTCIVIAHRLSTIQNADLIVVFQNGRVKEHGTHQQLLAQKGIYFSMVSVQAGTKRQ
# assay: MDCK-MDR1 cell monolayer drug transport assay (P-gp efflux ratio)
# Assay type: in vitro ADME
# recorded_conditions: pH 7.4, MDCK-MDR1 cells, 1 uM concentration of compound, read-out: Pgp Efflux Ratio, 1 uM
experimental_endpoint: efflux ratio at 2 h, 1 µM
Give the value as a plain number.

Below: 2 molecules and their reported efflux ratio at 2 h, 1 µM.
Cc1nnn(-c2ccc(C)c(NC(=O)c3cnn4ccc(-c5cnn(CCO)c5)cc34)c2)n1 [Example 51]    5.5
Cc1ccc(-c2nnn(C(C)C)n2)cc1NC(=O)c1cnn2ccc(-c3cnn(CCO)c3)cc12 [Example 49]    14

Name the reported efflux ratio at 2 h, 1 µM value associated with the molecule COCCNc1ccn2ncc(C(=O)Nc3cc(-c4nnn(C5CC(F)C5)n4)ccc3C)c2c1 (stereo not drawn) [Example 151]
4.8

Name the reported efflux ratio at 2 h, 1 µM value associated with the molecule COC(=O)N1CC(n2nnc(-c3ccc(C)c(NC(=O)c4cnn5ccc(NCC(C)(C)O)cc45)c3)n2)C1 [Example 89]
43.1

Name the reported efflux ratio at 2 h, 1 µM value associated with the molecule CCOC(=O)N1CC(n2nnc(-c3ccc(C)c(NC(=O)c4cnn5ccc(NCCOC)cc45)c3)n2)C1 [Example 149]
30.1

Name the reported efflux ratio at 2 h, 1 µM value associated with the molecule Cc1nnn(-c2ccc(C)c(NC(=O)c3cnn4ccc(-c5cn(C[C@H]6CNCCO6)nc5C)cc34)c2)n1 [Example 230]
116

Name the reported efflux ratio at 2 h, 1 µM value associated with the molecule Cc1ccc(-c2nnn(C3CC(F)(F)C3)n2)cc1NC(=O)c1cnn2ccc(N3CC[C@@H](O)C3)cc12 [Example 78]
13.1

Data origin, for the record: patent US20240262826A1
